TESTED TARGET: cathepsin L (Homo sapiens, UniProt P07711)
Sequence (P07711 114-333): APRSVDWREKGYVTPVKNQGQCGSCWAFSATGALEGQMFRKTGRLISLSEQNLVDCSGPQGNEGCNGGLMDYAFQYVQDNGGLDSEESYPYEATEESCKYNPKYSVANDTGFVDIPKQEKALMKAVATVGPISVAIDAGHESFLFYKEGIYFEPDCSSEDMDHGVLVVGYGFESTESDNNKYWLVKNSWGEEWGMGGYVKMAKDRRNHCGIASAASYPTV
Type: biochemical
Parameters: human cathepsin L purified from human liver (Sigma Aldrich); purchased Sigma Aldrich; host or cells: human liver (tissue-purified)
OBSERVED PROPERTY: percentage inhibition against Hendra peptide (%)
Give just the number in %; leave the unit off.

Task: Quick one: percentage inhibition against Hendra peptide of N#Cc1ccc(NC(=O)Nc2ccc(Cl)cc2)cc1 [Compound 7910528, 1-(4-chlorophenyl)-3-(4-cyanophenyl)urea] ?
Output: 12.1

Task: Can you look up the measured percentage inhibition against Hendra peptide of O=C(Nc1nc(-c2ccccc2)cs1)c1cc(-n2cnnc2)ccc1Cl [Compound 7931205] for me?
Output: 38.6

Task: Fill blank: measured percentage inhibition against Hendra peptide of the compound Cl.c1ccc(CNC2CCCc3c2[nH]c2ccc(-c4ccccc4)cc32)cc1 (stereo not shown) [Compound 5219666] is ____.
Output: 65.2

Task: Looking for the measured percentage inhibition against Hendra peptide of O=C(Nc1cccc(C(F)(F)F)c1)Nc1ccc(Cl)c(Cl)c1 [Compound 5182554] , can you help?
Output: 50.9

###

TESTED TARGET: cathepsin L (Homo sapiens)
Assay type: biochemical
Design: human cathepsin L purified from human liver (Sigma Aldrich); purchased Sigma Aldrich; host or cells: human liver (tissue-purified)
OBSERVED PROPERTY: Inhibition of cleavage of Nipah peptide by Cathepsin-L (%)
Give the value, in units of %, as a plain number.

Task: Requested read-out: Inhibition of cleavage of Nipah peptide by Cathepsin-L. Entry: CNS(=O)(=O)c1ccc(NC(=O)Nc2ccc(F)c(Cl)c2)cc1
Output: 44.1

Task: Entry under review: COc1ccc(OC)c(NC(=O)Nc2ccc(C(F)(F)F)cc2)c1 . Reported Inhibition of cleavage of Nipah peptide by Cathepsin-L?
Output: 40.8

Task: Which value of Inhibition of cleavage of Nipah peptide by Cathepsin-L has been reported for Cc1ccc(-c2nc3ccccc3[nH]2)cc1NC(=O)c1ccc2c(c1)OCO2 in the records?
Output: 51.1

Task: Would you kindly share the measured Inhibition of cleavage of Nipah peptide by Cathepsin-L for O=c1[nH]c2ccc(S(=O)(=O)Nc3ccc(Cl)c(Cl)c3)cc2o1 ?
Output: 53.6

Task: Please look up its Inhibition of cleavage of Nipah peptide by Cathepsin-L: O=C(Nc1cccnc1)c1cc2cc(Br)ccc2oc1=O
Output: 61.4

Task: # query: Inhibition of cleavage of Nipah peptide by Cathepsin-L of entry O=C(Nc1nc(-c2ccccc2)cs1)c1cc(-n2cnnc2)ccc1Cl
Output: 66.6

Task: Entry O=C(Nc1ccc(S(=O)(=O)N2CCOCC2)cc1)Nc1ccc(F)c(Cl)c1 has what Inhibition of cleavage of Nipah peptide by Cathepsin-L?
Output: 41.5

Task: Sample Cc1cc(C(=O)Nc2cccnc2)sc1-c1ccccc1 — what was its Inhibition of cleavage of Nipah peptide by Cathepsin-L?
Output: 49.3

Task: Which value of Inhibition of cleavage of Nipah peptide by Cathepsin-L has been reported for Cc1cnn(CCCNC(=O)c2cc(-c3cccnc3)nc3ccc(Cl)cc23)c1 in the records?
Output: 55.1

###

Assign Inhibition of cleavage of Nipah peptide by Cathepsin-L to each entry below.
TESTED TARGET: cathepsin L (Homo sapiens, UniProt P07711)
Format: biochemical
Design: human cathepsin L purified from human liver (Sigma Aldrich); purchased Sigma Aldrich; host or cells: human liver (tissue-purified)
Note: a bare number is incomplete; add the unit.

Task: Look up Inhibition of cleavage of Nipah peptide by Cathepsin-L for this compound: COC(=O)CN(C#N)c1nc(NC(C)C)nc(NC(C)C)n1
Output: 76.3%

Task: Data request, read-out Inhibition of cleavage of Nipah peptide by Cathepsin-L, for O=C(Nc1ccc2c(c1)OCO2)c1cc(-c2cccnc2)nc2ccc(Cl)cc12
Output: 50.4%

Task: Endpoint output: Inhibition of cleavage of Nipah peptide by Cathepsin-L of Cc1c(Sc2nc3ccccc3[nH]2)c(=O)[nH]c2cc3c(cc12)OCO3 . Value?
Output: 63.7%

Task: Data request, read-out Inhibition of cleavage of Nipah peptide by Cathepsin-L, for O=C(Nc1ccc(F)c(Cl)c1)Nc1nnc(C(F)(F)F)s1
Output: 34%

Task: Record request: Inhibition of cleavage of Nipah peptide by Cathepsin-L value, item Cc1c(C#N)c2ccccc2n1CC(=O)NCc1ccc2c(c1)OCO2
Output: 46%

Task: Look at this compound and give its reported Inhibition of cleavage of Nipah peptide by Cathepsin-L. N#Cc1ccc(NC(=O)Nc2ccc(Cl)cc2)cc1
Output: 57.8%

Cited source for all entries: patent US20150150878A1
